All values here come from the Kinase Knowledgebase extract (Sharma et al. 2016).

Reported IC50, EGFR (UniProt P00533).

**Q:** Quick one: IC50 for c1ccc(-c2ncnc(Nc3ccc(OCCCN4CCOCC4)cc3)n2)cc1 ?
**A:** > 4.5 µg/mL

**Q:** Please do the same for COC(=O)c1ccc(-c2cc(Nc3ncnc(NCc4ccccc4F)n3)[nH]n2)cc1 as well.
**A:** > 4.5 µg/mL

**Q:** Please do the same for COC(=O)n1c(=O)n(-c2ncnc(Nc3cc(OC)c(OC)c(OC)c3)n2)c2ccccc21 as well.
**A:** > 4.5 µg/mL

**Q:** Please do the same for COc1ccc(Nc2ncnc(Nc3ccccc3C)n2)cc1OC as well.
**A:** < 0.4 µg/mL

**Q:** Please do the same for COc1cccc(Nc2ncnc(-c3cccs3)n2)n1 as well.
**A:** > 4.5 µg/mL

**Q:** Please do the same for COc1cc(Nc2ncnc(-n3c(NCc4ccc5c(c4)OCO5)nc4ccccc43)n2)cc(OC)c1OC as well.
**A:** > 4.5 µg/mL

**Q:** Please do the same for COc1cc(Nc2ncnc(NC(=O)Cc3ccccc3)n2)cc(OC)c1OC as well.
**A:** 0.4 to 2.4 µg/mL

**Q:** Please do the same for Nc1ncnc(Nc2nc(-c3ccc(Cl)cc3)cs2)n1 as well.
**A:** > 4.5 µg/mL

**Q:** Please do the same for COc1ccc(Nc2ncnc(-n3c(N)nc4ccccc43)n2)cc1OC as well.
**A:** > 4.5 µg/mL

**Q:** Please do the same for COC(=O)c1ccc(-c2cc(Nc3ncnc(NCCN4CCNC4=O)n3)[nH]n2)cc1 as well.
**A:** > 4.5 µg/mL
